Data origin: patent US20200331925A1

experimental_system: CDK2/Cyclin A (Homo sapiens)
test_summary: CDK2/Cyclin A kinase assay (Nanosyn, Caliper microfluidic)
cond: 12-point dose-response, ATP at Km (50 μM), 3 hr
parameter: IC50
Please provide the amount together with its unit, number first.

IC50 reading for N[C@H]1CC[C@H](Nc2ncc3cc4n(c3n2)C2(CCCCC2)CNC4=O)CC1 [Compound 49] : 0.033 µM

IC50 reading for O=C1NCC2(CCCCC2)n2c1cc1cnc(N[C@H]3CCCNC3)nc12 [Compound 47] : 0.35 µM

IC50 reading for O=C1NCC2(CCCCC2)n2c1cc1cnc(N[C@H]3CC[C@H](Nc4ncc(F)cn4)CC3)nc12 [Compound 19] : 0.071 µM

IC50 reading for O=C1NCC2(CCCCC2)n2c1cc1cnc(NC(=O)[C@@H]3CCCNC3)nc12 [Compound 11] : 3.1 µM

IC50 reading for O=C1NCC2(CCCCC2)n2c1cc1cnc(N[C@H]3CCCNC3=O)nc12 [Compound 23] : 28 µM

IC50 reading for O=C1NCC2(CCCCC2)n2c1cc1cnc(NC(=O)[C@H]3CNCCO3)nc12 [Compound 35] : 10 µM

IC50 reading for C[C@H]1NCCC[C@H]1C(=O)Nc1ncc2cc3n(c2n1)C1(CCCCC1)CNC3=O [Compound 30] : 1.9 µM

IC50 reading for O=C1NCC2(CCCCC2)n2c1cc1cnc(N[C@H]3CC[C@H](N4CCCCC4)CC3)nc12 [Compound 46] : 0.25 µM

IC50 reading for O=C1NCC2(CCCCC2)n2c1cc1cnc(NC(=O)[C@H]3CCNC3)nc12 [Compound 33] : 6.1 µM

IC50 reading for O=C1NCC2(CCCCC2)n2c1cc1cnc(N[C@H]3CCCN[C@@H]3c3ccccc3)nc12 [Compound 10] : 3.6 µM

IC50 reading for O=C1NCC2(CCCCC2)n2c1cc1cnc(NC(=O)[C@@H]3CCNC3)nc12 [Compound 32] : 3.1 µM

IC50 reading for O=C1CC[C@H](Nc2ncc3cc4n(c3n2)C2(CCCCC2)CNC4=O)CN1 [Compound 24] : 0.22 µM

IC50 reading for NS(=O)(=O)c1cccc(Nc2ncc3cc4n(c3n2)C2(CCCCC2)CNC4=O)c1 [Compound 42] : 0.0043 µM
